# assayed target: human orexin 2 receptor (Homo sapiens (Human))
# Sequence (O43614 whole entry): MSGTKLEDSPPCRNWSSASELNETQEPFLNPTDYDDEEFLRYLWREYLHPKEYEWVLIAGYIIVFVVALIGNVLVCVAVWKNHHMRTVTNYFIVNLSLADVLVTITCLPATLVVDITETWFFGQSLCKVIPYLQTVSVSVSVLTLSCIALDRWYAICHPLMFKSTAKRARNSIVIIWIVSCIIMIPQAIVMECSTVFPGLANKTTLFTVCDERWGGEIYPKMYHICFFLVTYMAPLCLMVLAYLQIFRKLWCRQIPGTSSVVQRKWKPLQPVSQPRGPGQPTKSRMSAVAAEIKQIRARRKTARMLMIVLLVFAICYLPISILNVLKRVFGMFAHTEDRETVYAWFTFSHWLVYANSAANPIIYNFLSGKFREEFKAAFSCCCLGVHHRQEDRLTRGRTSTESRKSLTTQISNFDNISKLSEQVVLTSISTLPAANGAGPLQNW
# procedure summary: Human orexin 2 receptor radioligand binding ([3H]-EMPA competition)
# cond: HEK293 stably expressing human orexin 2 receptor; 2 nM [3H]-EMPA; averages of 2-20 runs; read-out: hOX2 Ki
pKi: −log10 of the molar value.

{"compound": "Cc1ccc(-n2nccn2)c(C(=O)N2[C@H](C)[C@H]3C[C@@H](Nc4ccc(C(F)(F)F)cn4)[C@@H]2C3)n1 (relative stereo)", "inequality sign": "=", "pKi": 7.11}
{"compound": "C[C@@H]1[C@H]2C[C@@H](Oc3cnc(C(F)(F)F)cn3)[C@H](C2)N1C(=O)c1ncccc1-n1nccn1 (relative stereo)", "inequality sign": "<", "pKi": 5.00}
{"compound": "CCC1C2CC(Oc3ccc(C(F)(F)F)cn3)C(C2)N1C(=O)c1ccccc1-c1ncccn1 (racemic)", "inequality sign": "=", "pKi": 6.50}
{"compound": "Cc1cnc(C(=O)N2C(CC(C)C)C3CC(Oc4ccc(C(F)(F)F)cn4)C2C3)c(-n2nccn2)c1 (racemic)", "inequality sign": "=", "pKi": 6.38}
{"compound": "Cc1cccc(C(=O)N2[C@H](C)[C@H]3C[C@@H](Oc4ccc(C(F)(F)F)nc4)[C@@H]2C3)c1-n1nccn1 (relative stereo)", "inequality sign": "=", "pKi": 5.44}
{"compound": "[2H]C([2H])([2H])[C@]1([2H])[C@H]2C[C@@H](Oc3ccc(C(F)(F)F)cn3)[C@H](C2)N1C(=O)c1cccc(F)c1-n1nccn1", "inequality sign": "=", "pKi": 6.25}
